I'd be grateful if you could share measured Vz/F_obs for these entries.
Type: in vivo, rat
cond: rat; dosed as prodrug, 10 mg/kg equivalent of Base Structure; analyte Parent (Base Structure); Average

## Task Name the reported Vz/F_obs value associated with the molecule CCCCCC(=O)NC(Cc1ccc(OC(=O)N2CCN(C)CC2)cc1)C(=O)NC(C(=O)NCCCCCC(N)=O)C(C)CC (stereo not shown) [Compound A20]
## Result 1.543 (mg/kg)/(ng/ml)

## Task Entry to check: CCCCCC(=O)N1C(Cc2ccc(OP(=O)([O-])[O-])cc2)C(=O)N(C(C(=O)NCCCCCC(N)=O)C(C)CC)C12CCN(C)CC2.[Na+].[Na+] (stereo not shown) [Compound 2]
## Result 6.571 (mg/kg)/(ng/ml)

## Task Entry to check: CCCCCC(=O)NC(Cc1ccc(OP(=O)(OCCN(C)C)OCCN(C)C)cc1)C(=O)NC(C(=O)NCCCCCC(N)=O)C(C)CC (stereo not shown) [Compound A18]
## Result 6.707 (mg/kg)/(ng/ml)

## Task Entry to check: CCCCCC(=O)NC(Cc1ccc(OC(=O)NCCN(C)C)cc1)C(=O)NC(C(=O)NCCCCCC(N)=O)C(C)CC (stereo not shown) [Compound A21]
## Result 24.65 (mg/kg)/(ng/ml)

* * *

Tested on: Caco-2 cells
assayDetails: Caco-2 permeability study with or without P-gp inhibitor GF120918
cond: +GF120918 (10 μM), 10 μM compound, 1 hr, pH 7.4
Where a SMILES comes first, the peptide text is derived from it. [ ]: non-standard residue; d: D form. The star is where a group is joined. ξ: configuration not given here. ξpY = NC(Cc1ccc(OP(=O)(O)O)cc1)C(=O)O; Ile(3ξ) = CCC(C)[C@H](N)C(=O)O; Hexanoyl = CCCCCC(=O)*; Ahx = NCCCCCC(=O)O
Decide using Caco-2 Cells Permeability Recovery Rate: a value greater than or equal to 90% is t, a smaller one is f.

## Task Please tell me: is the compound CCCCCC(=O)NC(Cc1ccc(OC(=O)CN2CCN(C)CC2)cc1)C(=O)NC(C(=O)NCCCCCC(N)=O)C(C)CC (stereo not drawn) at or over 90% in terms of Caco-2 Cells Permeability Recovery Rate?
## Result t

## Task Entry to check: CCCCCC(=O)NC(Cc1ccc(OC(=O)NCCN(C)C)cc1)C(=O)NC(C(=O)NCCCCCC(N)=O)C(C)CC (stereo not drawn)
## Result f

## Task Entry to check: CCCCCC(=O)NC(Cc1ccc(OC(=O)CN(C)C)cc1)C(=O)NC(C(=O)NCCCCCC(N)=O)C(C)CC (stereo not drawn)
## Result f

## Task Entry to check: CCCCCC(=O)NC(Cc1ccc(OP(=O)(O)O)cc1)C(=O)N[C@H](C(=O)NCCCCCC(N)=O)C(C)CC.N.N (stereo partly drawn) [Compound A29] (Hexanoyl-[ξpY]-[Ile(3ξ)]-[Ahx]-NH2)
## Result f

## Task Entry to check: CCCCCC(=O)NC(Cc1ccc(OC(=O)CN2CCOCC2)cc1)C(=O)NC(C(=O)NCCCCCC(N)=O)C(C)CC (stereo not drawn)
## Result t

## Task Entry to check: CCCCCC(=O)NC(Cc1ccc(OC(=O)C(N)C(C)C)cc1)C(=O)NC(C(=O)NCCCCCC(N)=O)C(C)CC (stereo not drawn) [Compound A27] (Hexanoyl-Tyr(Val)-Ile-[Ahx]-NH2; configuration not given here)
## Result t

## Task Entry to check: CCCCCC(=O)NC(Cc1ccc(OC(=O)CN2CCCC2)cc1)C(=O)NC(C(=O)NCCCCCC(N)=O)C(C)CC (stereo not drawn)
## Result f
